run_description: Inhibition of SLP76 phosphorylation at Ser376 in human Jurkat cells incubated for 30 mins by HTRF assay
readout: IC50 (nM)
Reply numerically in nM, unit not repeated.

Solved cases below.
- CC(C)n1cnnc1-c1cccc(NC(=O)c2cccc3c2nc(CN)n3C)n1: 1070
- CCCn1cnnc1-c1cccc(N2Cc3c(cc(N4CCC[C@H]4C)nc3CNC)C2=O)n1 [US11142525, Example 55]: 34
- CC[C@@H](N)c1nc(N2CCC[C@H]2C)cc2c1CN(c1cccc(-c3nncn3CC)n1)C2=O [US11684616, Example 140]: 53
- CCC(C)n1cnnc1-c1cccc(NC(=O)c2cccc3c2OCC(N)C3)n1 (stereo not drawn): 222
- CC(C)n1cnnc1-c1cccc(NC(=O)c2cccc3c2OCC(N)C3)n1 (stereo not drawn): 1080

Input: Recorded IC50 for CCCn1cnnc1-c1cccc(N2Cc3c(cc(N(C)C(C)C)nc3CNC)C2=O)n1 [US11142525, Example 63] , please?
Output: 87

Input: Recorded IC50 for CCCn1cnnc1-c1cccc(N2Cc3c(cc(N(C)C)nc3CNC)C2=O)n1 [US11142525, Example 46] , please?
Output: 121

Input: Recorded IC50 for C[C@@H]1CCCN1c1cc2c(c([C@@H](C)N)n1)CN(c1cccc(-c3nnc4n3[C@@H](C)CC4)n1)C2=O [US11684616, Example 24] , please?
Output: 53

Input: Recorded IC50 for CNCc1nc(N(C)C(C)C)cc2c1CN(c1cccc(-c3nnc4n3[C@@H](C)CC4)n1)C2=O [US11684616, Example 210] , please?
Output: 47

---

# pIC50 listing for each entry below
run_description: Inhibition of SLP76 phosphorylation at Ser376 in human Jurkat cells incubated for 30 mins by HTRF assay
Answer as the number alone; pIC50 is minus log10 of concentration in mol/L.

Solved cases below.
• CC[C@H](C)n1cnnc1-c1cccc(NC(=O)c2cccc3c2nc(CN)n3C)n1 = 6.86
• CNCc1cc(OC)cc2c1CN(c1cccc(-c3nncn3C(C)C)n1)C2=O = 6.42
• CNCc1nc(N(C)C(C)C)cc2c1CN(c1cccc(-c3nnc4n3[C@@H](CF)CC4)n1)C2=O [US11684616, Example 205] = 7.28
• CNCc1cc(OC)cc2c1CN(c1cccc(-c3nncn3[C@@H](C)CC(F)(F)F)n1)C2=O = 6.94
• COc1ccc2c(c1CN)CN(c1cccc(-c3nncn3[C@@H](C)CC(F)(F)F)n1)C2=O = 6.28
• CNCc1nc(N(C)C)cc2c1CN(c1cccc(-c3nncn3[C@@H](C)CC(F)(F)F)n1)C2=O [US11142525, Example 17] = 7.15
• CC[C@H]1CCc2nnc(-c3cccc(N4Cc5c(cc(N(C)C(C)C)nc5CNC)C4=O)n3)n21 [US11684616, Example 201] = 7.43
• CNCc1nc(N(C)C)cc2c1CN(c1cccc(-c3nncn3C(C)C)n1)C2=O [US11142525, Example 1] = 6.95

Let's switch to this compound now.
Input: Recorded pIC50 for CCCn1c(C)nnc1-c1cccc(N2Cc3c(cc(N(C)C(C)C)nc3CNC)C2=O)n1 [US11142525, Example 64] , please?
Output: 7.09
